Test: Metabolic stability in human kidney S9
Format: in vitro ADME
Conditions: human, s9
Procedure: The metabolic stability of the compounds in human kidney was evaluated to determine whether the drugs would be degraded by metabolic enzymes in the kidney to affect the efficacies and pharmacokinetics. 1. Relevant solutions were formulated. 2. a) With cofactors (NADPH & UDPGA): NADPH and UDPGA were added during the incubation. […] H2O was added into the culture solution. […] Peak areas were determined and slope values were calculated based on the extracted ion chromatograms.
Measured half-life at 0.2 μM, listed per entry.
Could you give me the number in h? Just the number is fine.

# compound, measure_unit, half-life at 0.2 μM
data = [
    ("O=C(c1ccc(OCCN2CCCCC2)cc1)c1c(-c2ccc(O)cc2)sc2cc(O)ccc12 [Raloxifene, reference compound]", "h", 1.56),
]

Reported half-life at 0.2 μM for O=c1ccc2ccc(O)cc2o1 [7-Hydroxy-courmarin, 7-hydroxy-coumarin, reference compound] was 1.69

Origin of measurements: patent US20260234211A1
